// provenance: ChEMBL document CHEMBL1157539

System: HepG2
Experiment: GSK_TCMDC: Percent inhibition of human HepG2 cell line. Test compounds present at 10uM.
Format: functional
Binarize Inhibition at 4%; below is met, at or above is not met.

Prompt: Hello, I'm reviewing records and need to know if Inhibition of COc1cccc(-c2cnc(N)c(-c3nc4ccc(F)cc4[nH]3)c2)c1.Cl is below 4%. Could you check?
Completion: not met

Prompt: Field entry: CC(C)(C)c1nn(-c2ccc(Cl)cc2)c2[nH]c(=O)c(CNC3CCCC3)cc12
Completion: met

Prompt: Same thing, different compound: Cc1cnc(CN(Cc2ccc(-c3ccc(CNCCc4ccc(S(C)(=O)=O)cc4)cn3)cc2)C(=O)c2nn(-c3ccccc3)nc2C)cn1.O=C(O)C(F)(F)F
Completion: not met

Prompt: O=C(NCCCCCN1CCC(c2c[nH]c3ccccc23)CC1)Nc1cccc(C(F)(F)F)c1 ?
Completion: not met

Prompt: CC1CC(C)CN(S(=O)(=O)c2cc(C(=O)Nc3cccc([N+](=O)[O-])c3)ccc2Br)C1 (configuration not stated) , same question.
Completion: met

Prompt: Also Br.CCC(ON1C(N)=NC(N)=NC1(C)C)c1ccc(Cl)cc1 (configuration not stated) ?
Completion: not met

Prompt: Same question, CCNC(=O)Nc1ccc(-c2ccc(-c3nc4cccc(C)c4[nH]3)s2)cc1 this time
Completion: not met

Prompt: Please give the result for COc1ccc2nccc([C@@H](O)CN3CCC(NCc4cn5cc(F)ccc5n4)CC3)c2c1.O=C(O)C(=O)O too.
Completion: not met

Prompt: How about this compound: CN(C)c1cccc2c1nc(-c1ccco1)n2CC1CCCN1.O=C(O)C(F)(F)F (configuration not stated)
Completion: met

Prompt: Follow-up item: O=C(NCCCCNCC(Cc1cccc([O-])c1)c1ccccc1)c1ccc(NC(=O)c2ccc(Cl)cc2)cc1.[Na+] (configuration not stated)
Completion: met

Prompt: Next record, please: Cc1ccccc1C1CCN(C2CCC(NC(=O)C3=Cc4cc(Cl)ccc4OC3)CC2)CC1 (configuration not stated)
Completion: not met
